- protocol_description: method code SF-HPLC, from DOI: 10.1023/a:1015933504191, PMID: 2122435
- experimental_context: pH 7.4
Labelling: logD reported below -0.4 becomes y; at or above becomes n.

-- ask For CCCCCCOC(=O)n1cnc(C[C@H](NC(=O)[C@@H]2CCC(=O)N2)C(=O)N2CCC[C@H]2C(N)=O)c1 , is the recorded logD below the cut-off of -0.4?
-- reply n

-- ask Also check CCCC(CCC)OC(=O)n1cnc(C[C@H](NC(=O)[C@@H]2CCC(=O)N2)C(=O)N2CCC[C@H]2C(N)=O)c1
-- reply n

-- ask Also check CCOC(=O)n1cnc(C[C@H](NC(=O)[C@@H]2CCC(=O)N2)C(=O)N2CCC[C@H]2C(N)=O)c1
-- reply y

-- ask Also check CC(C)COC(=O)n1cnc(C[C@H](NC(=O)[C@@H]2CCC(=O)N2)C(=O)N2CCC[C@H]2C(N)=O)c1
-- reply y

-- ask Also check NC(=O)[C@@H]1CCCN1C(=O)[C@H](Cc1cn(C(=O)OCc2ccccc2)cn1)NC(=O)[C@@H]1CCC(=O)N1
-- reply n

-- ask Also check CCCCCCCCOC(=O)n1cnc(C[C@H](NC(=O)[C@@H]2CCC(=O)N2)C(=O)N2CCC[C@H]2C(N)=O)c1
-- reply n

-- ask Also check CCC(CC)OC(=O)n1cnc(C[C@H](NC(=O)[C@@H]2CCC(=O)N2)C(=O)N2CCC[C@H]2C(N)=O)c1
-- reply n

-- ask Also check CC(C)OC(=O)n1cnc(C[C@H](NC(=O)[C@@H]2CCC(=O)N2)C(=O)N2CCC[C@H]2C(N)=O)c1
-- reply y

---

- protocol_description: method code SF-HPLC, from DOI: 10.1023/a:1015933504191, PMID: 2122435
- experimental_context: pH 7.4
Please respond with reported logD for every item in the list.
Form rule: numeric answer, no unit written next to it.

-- ask Record request: logD value, item COC(=O)n1cnc(C[C@H](NC(=O)[C@@H]2CCC(=O)N2)C(=O)N2CCC[C@H]2C(N)=O)c1
-- reply -1.88

-- ask Also check NC(=O)[C@@H]1CCCN1C(=O)[C@H](Cc1cn(C(=O)OC2CCCCC2)cn1)NC(=O)[C@@H]1CCC(=O)N1
-- reply 0.6

-- ask Also check CCCCC(CC)COC(=O)n1cnc(C[C@H](NC(=O)[C@@H]2CCC(=O)N2)C(=O)N2CCC[C@H]2C(N)=O)c1 (some centres undefined)
-- reply 1.82

-- ask Also check CCCCOC(=O)n1cnc(C[C@H](NC(=O)[C@@H]2CCC(=O)N2)C(=O)N2CCC[C@H]2C(N)=O)c1
-- reply -0.47
